Catalogue of IC50 values
System: HEK293 dopamine receptor CRE-luciferase, luminescence
protocol summary: dopamine receptor antagonists, CRE-luciferase reporter, dose response, counter-screen for LGR2 antagonist project, cell-based, HEK293, luminescence, dry powder, set 2 (AID 743503)
Calls of active or inactive are those of the source.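 How the source made its calls: active means IC50 under 35 µM for lowering the luciferase reporter signal in dopamine receptor counterscreen cells; inactive means IC50 over 35 µM.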

Here's what some known entries look like.
C[C@H](CO)N1C[C@H](C)[C@H](CN(C)C(=O)Nc2ccc(F)cc2)OCCCC[C@H](C)Oc2ccc(NC(=O)C3CCCCCC3)cc2C1=O
> 35 µM (inactive)
C[C@H](CO)N1C[C@H](C)[C@H](CN(C)C(=O)Nc2cccc3ccccc23)OCCCC[C@H](C)Oc2ccc(NC(=O)C3CCCCC3)cc2C1=O
> 35 µM (inactive)
Cc1ccc(NC(=O)N(C)C[C@@H]2OCCCC[C@H](C)Oc3ccc(NC(=O)C4CCCCC4)cc3C(=O)N([C@H](C)CO)C[C@@H]2C)cc1
> 35 µM (inactive)
C[C@H](CO)N1C[C@H](C)[C@H](CN(C)C(=O)Nc2ccc3ccccc3c2)OCCCC[C@H](C)Oc2ccc(NC(=O)C3CCCCC3)cc2C1=O
> 35 µM (inactive)
C[C@H](CO)N1C[C@H](C)[C@H](CN(C)C(=O)Nc2ccc(F)cc2)OCCCC[C@H](C)Oc2ccc(NC(=O)C3CCCC3)cc2C1=O
> 35 µM (inactive)
C[C@@H]1CN([C@@H](C)CO)C(=O)c2cc(NC(=O)C3CCCCC3)ccc2O[C@@H](C)CCCCO[C@H]1CN(C)C(=O)Nc1cccc2ccccc12
> 35 µM (inactive)

query: Any idea what IC50 was measured for C[C@H]1CCCCO[C@@H](CN(C)C(=O)Nc2cccc3ccccc23)[C@@H](C)CN([C@@H](C)CO)C(=O)c2cc(NC(=O)C3CCCCC3)ccc2O1 ?
result: > 35 µM (inactive)
